Data origin, for the record: PubChem BioAssay

Below, each entry is listed with its recorded composite z-score.
Tested on: Neuregulin-1 EGF-like domain
Assay: binders of neuregulin-1 EGF-like domain, primary screen, biochemical, small-molecule microarray, 635 nm fluorescence (AID 1081);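 note: binding of the protein to compounds printed on small-molecule microarray slides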
Conditions: small-molecule microarray binding, higher = more signal
Respond with the number and no other words.

Reference set, count: 6
- COMPOUND: "CCCC[C@@H]1C[C@H]1[C@@H](NC(=O)c1ccc(C(F)(F)F)cc1)c1ccc(C(=O)OC)cc1"
  composite z-score: 0.0521
- COMPOUND: "CN(C)CCCC[C@@H]1NC(=O)[C@H]2C[C@@H](C(=O)O)[C@@H](c3cccc(OCCO)c3)N2C1=O"
  composite z-score: 1.44
- COMPOUND: "O=C1c2ccccc2[C@@]2(Cc3ccccc3N(Cc3ccccc3)C2=O)[C@H](c2ccc(CO)cc2)N1Cc1ccccc1"
  composite z-score: -0.564
- COMPOUND: "CN(C)CCCNC(=O)[C@@H]1c2ccccc2C(=O)N(C2Cc3ccccc3C2)[C@H]1c1ccc(CO)cc1"
  composite z-score: 0.849
- COMPOUND: "COC(=O)[C@@]1(Cc2ccc(F)cc2)[C@H]2c3cc(C(=O)N4CCCC4)n(CCO)c3C[C@H]2CN1C(=O)c1ccccc1"
  composite z-score: 1.26
- COMPOUND: "CC(=O)NCCCC[C@@H]1NC(=O)[C@@H]2C[C@H](C(=O)NCCCCCC[N+](C)(C)C)[C@H](c3ccc(O)cc3)N2C1=O"
  composite z-score: 1.23

Lab note: need composite z-score with Neuregulin-1 EGF-like domain for entry `C=CCOC(=O)[C@H]1[C@@H]2C(=O)O[C@@H](c3ccccc3)[C@@H](c3ccccc3)N2[C@@H](c2ccc(OCCOC(=O)[C@H]3C[C@H]4C(=O)NCC(=O)N4[C@H]3c3ccc(O)cc3)cc2)[C@]12C(=O)Nc1ccc(I)cc12` , please look it up.
0.869

Lab note: need composite z-score with Neuregulin-1 EGF-like domain for entry C=CCC(OC(C)=O)[C@@H]1[C@@H](N(Cc2cc3ccccc3o2)C(=O)Cc2ccc(OC)cc2)c2cc(OCCCO)ccc2N1C(=O)Cc1ccc2ccccc2c1 (some centres undefined) , please look it up.
0.331

Lab note: need composite z-score with Neuregulin-1 EGF-like domain for entry `C=CC[C@]1(C(=O)OC)N=C(c2ccc(OCCCO)cc2)O[C@H]1c1ccccc1N=[N+]=[N-]` , please look it up.
1.4
